These data points were gathered from patent US20250340608A1.

targetOfAssay: T1, human ferroportin (SLC40A1) fused in frame with GFP, stably expressed in HEK293 cells (human, UniProt Q9NP59 1-571)
T1 sequence (looked up): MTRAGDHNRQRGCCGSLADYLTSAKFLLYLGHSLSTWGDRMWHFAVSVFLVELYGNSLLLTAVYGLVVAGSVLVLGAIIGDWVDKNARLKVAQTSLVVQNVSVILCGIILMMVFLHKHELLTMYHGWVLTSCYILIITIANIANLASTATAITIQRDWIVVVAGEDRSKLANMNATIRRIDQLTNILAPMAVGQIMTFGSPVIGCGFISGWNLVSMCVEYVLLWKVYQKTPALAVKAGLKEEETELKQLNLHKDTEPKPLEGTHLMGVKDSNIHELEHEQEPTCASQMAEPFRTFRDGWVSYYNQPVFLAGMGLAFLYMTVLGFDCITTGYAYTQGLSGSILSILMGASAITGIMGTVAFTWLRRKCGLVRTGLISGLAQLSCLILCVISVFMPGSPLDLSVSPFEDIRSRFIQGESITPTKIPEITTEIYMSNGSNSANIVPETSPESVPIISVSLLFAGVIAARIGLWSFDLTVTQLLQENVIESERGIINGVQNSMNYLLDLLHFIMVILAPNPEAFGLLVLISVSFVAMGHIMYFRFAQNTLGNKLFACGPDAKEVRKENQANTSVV
testName: cell-based or functional assay
recordedEndpoint: Potency: % (activity) at 1 µM (%)

- binder: "H-DTHFPCIF-NH2 [Compound 293]"
  recordedEndpoint: "Potency: % (activity) at 1 µM"
  unitSymbol: "%"
  numericResult: 52
- binder: "H-DTHFPCIEK-NH2 [Compound 310]"
  recordedEndpoint: "Potency: % (activity) at 1 µM"
  unitSymbol: "%"
  numericResult: 0
- binder: "H-DTHFPCIIK-NH2 [Compound 304]"
  recordedEndpoint: "Potency: % (activity) at 1 µM"
  unitSymbol: "%"
  numericResult: 55
- binder: "H-DTHFPCIIR-NH2 [Compound 305]"
  recordedEndpoint: "Potency: % (activity) at 1 µM"
  unitSymbol: "%"
  numericResult: 62
